B1: HDV Ribozyme (parent)
chain: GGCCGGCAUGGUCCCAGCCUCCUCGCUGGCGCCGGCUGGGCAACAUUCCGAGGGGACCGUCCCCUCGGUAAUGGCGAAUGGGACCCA

variants of: B1; assay: self-cleavage, relative activity (ratio to wild type); higher = more cleavage; co-transcriptional
endpoint: self-cleavage

# annotated cases, reported self-cleavage shown
INSERT INTO assay_data (monomer_sequence, observed_result) VALUES
  ('GGCCGGCAUGGUCCCAGCCUCCUCGCGGGCGCCGGCUAGGCAACAUUCCGAGGGGACCGUCCCCUCGGUAAUGGCGAAUGGGACCCA [U27G G38A]', 0.128),
  ('GGCCGGCAUGGUCCGAGCCUCCUCGCUGGCGCCGGCUGGGCAACAUUCCGAGGGGACCGUCGCCUCGGUAAUGGCGAAUGGGACCCA [C15G C62G]', 0.237);

State the recorded self-cleavage for this entry: GGCCGGCAUGGUCCCACCCUCCUCGCUGGCGCCGGCUGGGCAACAUUCCGAGGCGACCGUCCCCUCGGUAAUGGCGAAUGGGACCCA [G17C G54C]
0.447

State the recorded self-cleavage for this entry: GGCCGGCAUGGUCCCAGCCUCCUCGCUGGCGCCGGCUGGGCCACAUUCCGAGGGGACCGCCCCCUCGGUAAUGGCGAAUGGGACCCA [A42C U60C]
0.35

State the recorded self-cleavage for this entry: GGCCGGCAUGAUCCCAGCCUCCUCGCUGGCGCCGGCUGGGCAACAUUCCGAGGGGACCGCCCCCUCGGUAAUGGCGAAUGGGACCCA [G11A U60C]
0.43
